From: PubChem BioAssay

target: Follistatin-related protein 3 (Homo sapiens) (UniProt O95633); assay: compounds binding follistatin-related protein 3 – biochemical, small-molecule microarray, 635 nm fluorescence, primary screen (AID 1105); conditions: FSTL3 binding, higher = more signal;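 note: score merges emission near 667 nm and signal to noise per printed spot across three slides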
Sequence (O95633 whole entry, looked up): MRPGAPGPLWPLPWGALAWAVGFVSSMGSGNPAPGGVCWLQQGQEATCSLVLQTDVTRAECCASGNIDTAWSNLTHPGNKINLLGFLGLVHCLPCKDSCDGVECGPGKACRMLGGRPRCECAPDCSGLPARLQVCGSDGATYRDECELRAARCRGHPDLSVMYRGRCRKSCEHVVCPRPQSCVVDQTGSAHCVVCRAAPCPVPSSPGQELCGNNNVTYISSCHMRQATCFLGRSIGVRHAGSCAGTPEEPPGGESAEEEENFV
Parameter composite z-score: see the listing below.
Form rule: numeric answer, no unit written next to it.

Study these solved cases before continuing.
[N-]=[N+]=NCc1ccccc1[C@H]1OC(c2ccc(OCCCO)cc2)=N[C@@]1(Cc1ccccc1)C(=O)N1CCCCC1 : 0.79
COC(=O)[C@@]1(Cc2ccccc2)[C@H]2c3cc(C(=O)N(C)C)n(Cc4ccc(OC)c(OC)c4)c3C[C@H]2CN1C(=O)c1ccccc1 : 0.609
CN1C(=O)C2C=CC(C(O)C=Cc3ccc([N+](=O)[O-])cc3)N(Nc3ccccc3)C2C1=O (stereo unspecified) : 1.06
C=CCNC(=O)[C@@H]1[C@H]2C(=O)O[C@H](c3ccccc3)[C@H](c3ccccc3)N2[C@H](c2ccc(OCCO)cc2)[C@@]12C(=O)N(C(=O)OCCOC)c1ccc(C#CCNC(N)=O)cc12 : 0.898
COCCOC(=O)N1C(=O)[C@@]2(c3cc(C#Cc4ccc(OC)cc4)ccc31)[C@H](c1ccc(O)cc1)N1[C@H](c3ccccc3)[C@H](c3ccccc3)OC(=O)[C@H]1[C@@H]2C(=O)Nc1nc2ccccc2s1 : 0.899

Please find the next compound below.
Q: Record lookup: for Follistatin-related protein 3 (Homo sapiens) (UniProt O95633), what composite z-score belongs to C=CCC(OC(C)=O)[C@@H]1[C@@H](N(Cc2ccc(-c3ccccc3)cc2)C(=O)Cc2ccc(F)cc2)c2cc(OCCCO)ccc2N1C(=O)c1ccc2ccccc2c1 (stereo partly specified) ?
A: 0.268
